# Tested on: Escherichia coli TOP10
# assay-notes: shrunken log2 fold change of peptide-encoding DNA abundance (4.5 h post-induction vs induction); higher = less antimicrobial activity (less host growth inhibition)
# stated-conditions: time post-induction: 4.5 h; library: site-saturation at positions 5, 18, 19, 20
quantity-measured: shrunken log2 fold change

Here is how some sequences turned out for shrunken log2 fold change.
residue-sequence: RRIRLRPPRLPRPRPRPNYCPRP
shrunken log2 fold change: -0.31

residue-sequence: RRIRHRPPRLPRPRPRPAFNPRP
shrunken log2 fold change: -0.313

residue-sequence: RRIRDRPPRLPRPRPRPNSWPRP
shrunken log2 fold change: -0.12

residue-sequence: RRIRNRPPRLPRPRPRPMFAPRP
shrunken log2 fold change: -0.239

residue-sequence: RRIRLRPPRLPRPRPRPSHPPRP
shrunken log2 fold change: -0.516

residue-sequence: RRIRSRPPRLPRPRPRPHNQPRP
shrunken log2 fold change: -0.271

residue-sequence: RRIRKRPPRLPRPRPRPSFYPRP
shrunken log2 fold change: -0.391

residue-sequence: RRIRKRPPRLPRPRPRPHNTPRP
shrunken log2 fold change: -0.152

We next turn to a different sequence, shown below.
Asked: For the sequence shown here, RRIRHRPPRLPRPRPRPVYKPRP , give the reported shrunken log2 fold change.
Given back: -0.665

---

Overview of recorded shrunken log2 fold change for various sequences
# Tested on: Escherichia coli TOP10
# assay-notes: shrunken log2 fold change of peptide-encoding DNA abundance (4.5 h post-induction vs induction); higher = less antimicrobial activity (less host growth inhibition)
# stated-conditions: time post-induction: 4.5 h; library: site-saturation at positions 5, 18, 19, 20
Number only, please.

Here is how some sequences turned out for shrunken log2 fold change.
residue-sequence: RRIRERPPRLPRPRPRPGLLPRP
shrunken log2 fold change: -0.0986
//
residue-sequence: RRIRHRPPRLPRPRPRPGQKPRP
shrunken log2 fold change: 0.00748
//
residue-sequence: RRIRVRPPRLPRPRPRPLEAPRP
shrunken log2 fold change: 0.242

Asked: Query the reported shrunken log2 fold change for Escherichia coli TOP10; item: RRIRVRPPRLPRPRPRPEHGPRP
Given back: -0.219

Asked: Query the reported shrunken log2 fold change for Escherichia coli TOP10; item: RRIRYRPPRLPRPRPRPYAEPRP
Given back: -0.193

Asked: Query the reported shrunken log2 fold change for Escherichia coli TOP10; item: RRIRLRPPRLPRPRPRPPSMPRP
Given back: -0.127

---

Overview of recorded shrunken log2 fold change for various sequences
# Test system: Escherichia coli TOP10
# assay-notes: shrunken log2 fold change of peptide-encoding DNA abundance (4.5 h post-induction vs induction); higher = less antimicrobial activity (less host growth inhibition)
# stated-conditions: time post-induction: 4.5 h; library: site-saturation at positions 5, 18, 19, 20
Number only, please.

Here is how some sequences turned out for shrunken log2 fold change.
residue-sequence: RRIRLRPPRLPRPRPRPGEFPRP
tested-target: Escherichia coli TOP10
measured-number: 2.05

residue-sequence: RRIRDRPPRLPRPRPRPPCWPRP
tested-target: Escherichia coli TOP10
measured-number: 0.407

residue-sequence: RRIRVRPPRLPRPRPRPYPKPRP
tested-target: Escherichia coli TOP10
measured-number: -0.858

residue-sequence: RRIRQRPPRLPRPRPRPHEQPRP
tested-target: Escherichia coli TOP10
measured-number: 0.0505

residue-sequence: RRIRVRPPRLPRPRPRPCCQPRP
tested-target: Escherichia coli TOP10
measured-number: -0.19

residue-sequence: RRIRKRPPRLPRPRPRPVYYPRP
tested-target: Escherichia coli TOP10
measured-number: -0.094

residue-sequence: RRIRRRPPRLPRPRPRPWQDPRP
tested-target: Escherichia coli TOP10
measured-number: 0.0293

residue-sequence: RRIRHRPPRLPRPRPRPIRQPRP
tested-target: Escherichia coli TOP10
measured-number: 0.0104

Asked: For the sequence shown here, RRIRFRPPRLPRPRPRPHRWPRP , give the reported shrunken log2 fold change.
Given back: -0.17

Asked: For the sequence shown here, RRIRERPPRLPRPRPRPFYNPRP , give the reported shrunken log2 fold change.
Given back: -0.306

Asked: For the sequence shown here, RRIRRRPPRLPRPRPRPGPDPRP , give the reported shrunken log2 fold change.
Given back: 0.518

Asked: For the sequence shown here, RRIRQRPPRLPRPRPRPGRYPRP , give the reported shrunken log2 fold change.
Given back: -0.205

Asked: For the sequence shown here, RRIRFRPPRLPRPRPRPPAHPRP , give the reported shrunken log2 fold change.
Given back: 0.613

Asked: For the sequence shown here, RRIRVRPPRLPRPRPRPYVWPRP , give the reported shrunken log2 fold change.
Given back: -0.567

Asked: For the sequence shown here, RRIRGRPPRLPRPRPRPPQPPRP , give the reported shrunken log2 fold change.
Given back: 1.03

Asked: For the sequence shown here, RRIRFRPPRLPRPRPRPSANPRP , give the reported shrunken log2 fold change.
Given back: -0.395

Asked: For the sequence shown here, RRIRGRPPRLPRPRPRPQSCPRP , give the reported shrunken log2 fold change.
Given back: 0.195

Asked: For the sequence shown here, RRIRPRPPRLPRPRPRPHQPPRP , give the reported shrunken log2 fold change.
Given back: -0.129

Asked: For the sequence shown here, RRIRSRPPRLPRPRPRPCFDPRP , give the reported shrunken log2 fold change.
Given back: 0.11

---

Overview of recorded shrunken log2 fold change for various sequences
# Test system: Escherichia coli TOP10
# assay-notes: shrunken log2 fold change of peptide-encoding DNA abundance (4.5 h post-induction vs induction); higher = less antimicrobial activity (less host growth inhibition)
# stated-conditions: time post-induction: 4.5 h; library: site-saturation at positions 5, 18, 19, 20
Number only, please.

Here is how some sequences turned out for shrunken log2 fold change.
residue-sequence: RRIRPRPPRLPRPRPRPKYFPRP
tested-target: Escherichia coli TOP10
shrunken log2 fold change: -0.693
//
residue-sequence: RRIRSRPPRLPRPRPRPGGTPRP
tested-target: Escherichia coli TOP10
shrunken log2 fold change: 0.247
//
residue-sequence: RRIRYRPPRLPRPRPRPKFKPRP
tested-target: Escherichia coli TOP10
shrunken log2 fold change: -0.319

Asked: For the sequence shown here, RRIRWRPPRLPRPRPRPFFFPRP , give the reported shrunken log2 fold change.
Given back: 0.253

Asked: For the sequence shown here, RRIRQRPPRLPRPRPRPFYYPRP , give the reported shrunken log2 fold change.
Given back: -0.59

Asked: For the sequence shown here, RRIRFRPPRLPRPRPRPKGIPRP , give the reported shrunken log2 fold change.
Given back: -0.0392

Asked: For the sequence shown here, RRIRTRPPRLPRPRPRPYEFPRP , give the reported shrunken log2 fold change.
Given back: -0.202

---

# Tested on: Escherichia coli TOP10
# assay-notes: shrunken log2 fold change of peptide-encoding DNA abundance (4.5 h post-induction vs induction); higher = less antimicrobial activity (less host growth inhibition)
# stated-conditions: time post-induction: 4.5 h; library: site-saturation at positions 5, 18, 19, 20
Overview of recorded shrunken log2 fold change for various sequences

Here is how some sequences turned out for shrunken log2 fold change.
residue-sequence: RRIRGRPPRLPRPRPRPHYMPRP
result: 0.00569

residue-sequence: RRIRARPPRLPRPRPRPHFHPRP
result: -0.197

residue-sequence: RRIRPRPPRLPRPRPRPYMQPRP
result: -0.681

residue-sequence: RRIRDRPPRLPRPRPRPCLLPRP
result: 0.491

We next turn to a different sequence, shown below.
Asked: For the sequence shown here, RRIRWRPPRLPRPRPRPAWHPRP , give the reported shrunken log2 fold change.
Given back: 0.162

---

# Tested on: Escherichia coli TOP10;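 note: peptides expressed intracellularly from a pBAD plasmid library in pooled LB shake-flask culture, induced with 0.3% L-arabinose, DNA abundance read by NGS, three biological replicates, DESeq2 with apeglm shrinkage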
# assay-notes: shrunken log2 fold change of peptide-encoding DNA abundance (4.5 h post-induction vs induction); higher = less antimicrobial activity (less host growth inhibition)
# stated-conditions: time post-induction: 4.5 h; library: site-saturation at positions 5, 18, 19, 20
I would appreciate it if you labelled entries Fulfilled when shrunken log2 fold change is 0.05 or higher, otherwise Not fulfilled.

As a guide, the following entries are already answered.
residue-sequence: RRIRTRPPRLPRPRPRPEWDPRP
answer-label: Fulfilled

residue-sequence: RRIRCRPPRLPRPRPRPFWYPRP
answer-label: Not fulfilled

residue-sequence: RRIRLRPPRLPRPRPRPCQVPRP
answer-label: Not fulfilled

residue-sequence: RRIRERPPRLPRPRPRPYEFPRP
answer-label: Not fulfilled

residue-sequence: RRIRERPPRLPRPRPRPSKKPRP
answer-label: Not fulfilled

Asked: Could you tell me if the measured shrunken log2 fold change of RRIRLRPPRLPRPRPRPLREPRP reaches 0.05 or more?
Given back: Fulfilled

Asked: Could you tell me if the measured shrunken log2 fold change of RRIRCRPPRLPRPRPRPVKPPRP reaches 0.05 or more?
Given back: Fulfilled

Asked: Could you tell me if the measured shrunken log2 fold change of RRIRQRPPRLPRPRPRPCAIPRP reaches 0.05 or more?
Given back: Not fulfilled

Asked: Could you tell me if the measured shrunken log2 fold change of RRIRMRPPRLPRPRPRPTRNPRP reaches 0.05 or more?
Given back: Fulfilled
